test system: HeLa; assay: Cytotoxicity against human HeLa cells at 32 uM incubated for 24 hrs by CCK-8 assay; format: functional, cell-based
Activity calls are given as the source filed them. The rule behind the calls is not given here.
measured-quantity: Activity

CCCC[N+](C)(C)CCCOc1ccc(/C=C/c2ccccc2)cc1.[Br-] = Active
C[N+](C)(C)CCCOc1ccc(/C=C/c2ccccc2)cc1.[Br-] = Active
CCCC[N+](C)(C)CCCOc1ccc(/C=C/c2ccc(N(c3ccccc3)c3ccccc3)cc2)cc1.[Br-] = Active
C[N+](C)(C)CCCOc1ccc(/C=C/c2ccc(N(c3ccccc3)c3ccccc3)cc2)cc1.[Br-] = Active

----------
test system: Escherichia coli; assay: Antibacterial activity against Escherichia coli incubated for 90 mins; type: functional, organism-based
The source made the active and inactive calls. No cut-off for these calls is given here.
measured-quantity: Activity

Consider the reported Activity for these compounds:
C[N+](C)(C)CCCOc1ccc(/C=C/c2ccccc2)cc1.[Br-] = Active
CCCCCCCC[N+](C)(C)CCCOc1ccc(/C=C/c2ccc(N(c3ccccc3)c3ccccc3)cc2)cc1.[Br-] = Active
C[N+](C)(C)CCCOc1ccc(/C=C/c2ccc(N(c3ccccc3)c3ccccc3)cc2)cc1.[Br-] = Active
CCCCCCCCCC[N+](C)(C)CCCOc1ccc(/C=C/c2ccccc2)cc1.[Br-] = Active
CCCC[N+](C)(C)CCCOc1ccc(/C=C/c2ccc(N(c3ccccc3)c3ccccc3)cc2)cc1.[Br-] = Active
CCCCCCCCCC[N+](C)(C)CCCOc1ccc(/C=C/c2ccc(N(c3ccccc3)c3ccccc3)cc2)cc1.[Br-] = Active
CCCCCCCC[N+](C)(C)CCCOc1ccc(/C=C/c2ccccc2)cc1.[Br-] = Active

Then there is this compound:
Inquiry: Data request, read-out Activity, for CCCC[N+](C)(C)CCCOc1ccc(/C=C/c2ccccc2)cc1.[Br-]
Reply text: Active

----------
Recorded Activity values for a group of molecules are listed next.
test system: Staphylococcus aureus; experiment: Antibacterial activity against methicillin resistant Staphylococcus aureus assessed as bacterial viability at 4 uM incubated for 90 mins relative to control; type: functional; details: 1.5 h
Answer with a number only, understood to be in %.

CCCCCCCC[N+](C)(C)CCCOc1ccc(/C=C/c2ccc(N(c3ccccc3)c3ccccc3)cc2)cc1.[Br-] = 28
C[N+](C)(C)CCCOc1ccc(/C=C/c2ccc(N(c3ccccc3)c3ccccc3)cc2)cc1.[Br-] = 3
CCCC[N+](C)(C)CCCOc1ccc(/C=C/c2ccc(N(c3ccccc3)c3ccccc3)cc2)cc1.[Br-] = 2

Inquiry: Data request, read-out Activity, for CCCCCCCCCC[N+](C)(C)CCCOc1ccc(/C=C/c2ccc(N(c3ccccc3)c3ccccc3)cc2)cc1.[Br-]
Reply text: 52

----------
test system: Cell membrane; test: Induction of Inner membrane integrity in Staphylococcus aureus at 128 uM measured for 40 mins in presence of phosphatidylglycerol by T12 dye based analysis; type: subcellular
Active and inactive are the calls of the source. No cut-off for these calls is given here.
measured-quantity: Activity

CCCC[N+](C)(C)CCCOc1ccc(/C=C/c2ccccc2)cc1.[Br-] = inactive
C[N+](C)(C)CCCOc1ccc(/C=C/c2ccccc2)cc1.[Br-] = inactive
CCCCCCCCCC[N+](C)(C)CCCOc1ccc(/C=C/c2ccc(N(c3ccccc3)c3ccccc3)cc2)cc1.[Br-] = inactive
CCCCCCCC[N+](C)(C)CCCOc1ccc(/C=C/c2ccc(N(c3ccccc3)c3ccccc3)cc2)cc1.[Br-] = inactive
